Values were extracted from patent US12006289B2.

- ASSAY_PROTOCOL: Solubility of compounds in 50 mM phosphate buffer pH 7.4 by HPLC
- Type: physicochemical
- EXPERIMENTAL_PARAMETERS: 16 h, pH 7.4
REPORTED_PROPERTY: Measured Solubility in pH 7.4 phosphate buffer (μM) (rounded)

{"COMPOUND": "CC(C)OC(=O)N(C[C@@H]1CCCN1)C1(c2ccc(F)c(C(F)(F)F)c2)CC1 [[44]]", "VALUE_MEASURED": "1600 μM"}
{"COMPOUND": "CC(C)(N)CN(CC1CC1)C1(c2ccc(F)c(C(F)(F)F)c2)CC1 [[8]]", "VALUE_MEASURED": "1500 μM"}
{"COMPOUND": "COC(=O)N(CC(C)(C)N)C1(c2ccc(F)c(C(F)(F)F)c2)CC1 [[2]]", "VALUE_MEASURED": "1600 μM"}
{"COMPOUND": "COC(=O)N(C[C@H]1CCCN1C)C1(c2ccc(F)c(C(F)(F)F)c2)CC1 [[31]]", "VALUE_MEASURED": "1500 μM"}
{"COMPOUND": "COC(=O)N(C[C@@H]1CCN1)C1(c2ccc(F)c(C(F)(F)F)c2)CC1 [[53]]", "VALUE_MEASURED": "1700 μM"}
{"COMPOUND": "CN1CCC1CN(CC(C)(C)O)C1(c2ccc(F)c(C(F)(F)F)c2)CC1 (stereo not drawn) [[16]]", "VALUE_MEASURED": "1600 μM"}
